Origin of values: patent US20200095340A1

The following binders are shown together with reported Kd values.
Tested Target: biotinylated human DLL3 protein expressed as a human IgG1 fusion protein (human) (UniProt Q9NYJ7)
Sequence (Q9NYJ7 other isoform, or with tags, fused parts or gaps): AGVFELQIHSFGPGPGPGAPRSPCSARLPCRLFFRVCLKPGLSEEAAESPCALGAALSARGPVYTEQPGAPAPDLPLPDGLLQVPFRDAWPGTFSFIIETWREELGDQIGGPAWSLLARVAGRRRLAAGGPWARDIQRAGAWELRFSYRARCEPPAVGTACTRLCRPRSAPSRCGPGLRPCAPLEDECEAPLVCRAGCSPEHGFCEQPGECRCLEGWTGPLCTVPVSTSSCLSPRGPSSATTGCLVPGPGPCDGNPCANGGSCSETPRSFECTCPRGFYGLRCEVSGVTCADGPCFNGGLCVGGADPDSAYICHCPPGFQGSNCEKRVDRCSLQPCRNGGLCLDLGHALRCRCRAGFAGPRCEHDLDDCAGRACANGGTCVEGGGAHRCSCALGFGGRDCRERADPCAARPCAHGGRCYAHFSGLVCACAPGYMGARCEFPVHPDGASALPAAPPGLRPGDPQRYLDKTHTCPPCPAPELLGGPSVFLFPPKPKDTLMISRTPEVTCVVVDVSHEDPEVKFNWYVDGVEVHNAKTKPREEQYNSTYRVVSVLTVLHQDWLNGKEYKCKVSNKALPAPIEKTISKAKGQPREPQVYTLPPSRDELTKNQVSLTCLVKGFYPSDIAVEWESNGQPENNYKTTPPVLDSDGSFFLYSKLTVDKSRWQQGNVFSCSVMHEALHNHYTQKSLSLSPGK
Measurement Protocol: Octet BLI; biotinylated huDLL3-IgG1 fusion on streptavidin tips; single 50 nM; conditioned medium
Write the answer as a number in nM, unit excluded.

Would you please look over these solved cases?
Binder	Unit Of Measure	Kd
anti-DLL3 trispecific protein 4D09 (protein, part only; not given: CD3 binder and albumin binder, part only) chain, part: EVQLVESGGGLVQPGGSLTLSCAASGSSVKFLSMAWYRQAPGKKRELVAGISADGSTDYILSVKGRFTISRDNAKNSVYLQMNSLRAEDTAVYYCYAYEWTTRYTYWGQGTLVTVSSGGGGSGGGSGGGGSGGGSHHHHHH	nM	4.7
anti-DLL3 trispecific protein 2E01 (protein, part only; not given: anti-CD3 and anti-albumin domains, part only) chain, part: EVQLVESGGGLVQPGGSLTLSCVASGSTSSINAMGWYRRAPFKQGELPAGISPDGTKAYADSAKVRFTISRDNAKNSVYLQMNSLRAEDTAVYYCYYFHTVCGTSMGYWGQGTLVTVSSGGGGSGGGSGGGGSGGGSHHHHHH	nM	4.1
anti-DLL3 trispecific protein 1F06 (protein, part only; not given: anti-CD3 and anti-albumin domains, part only) chain, part: EVQLVESGGGLVQPGGSLTLSCVASGTTSSINAMGWYRRAPGKQRELVAGISSDGSKVIADSVKGRFTISRDNAKNSVYLQMNSLRAEDTAVYYCYYFRTVLGSSMRYWGQGTLVTVSSGGGGSGGGSGGGGSGGGSHHHHHH	nM	8.9
anti-DLL3 trispecific protein 2H02 (protein, part only; not given: anti-CD3 and anti-albumin domains, part only) chain, part: EVQLVESGGGLVQPGGSLTLSCVASGSTSSINAMAWYRRAPGKQRELAAGISSDGSKVYADSVKGRFTISRDNAKNSVYLQMNSLRAEDTAVYYCYYFHTVSGSSMRYWGQGTLVTVSSGGGGSGGGSGGGGSGGGSHHHHHH	nM	4.4
anti-DLL3 trispecific protein 1F01 (protein, part only; not given: CD3 fragment and albumin sdAb, part only) chain, part: EVQLVESGGGLVQPGGSLTLSCVASGSTSSINAMGWYRRAPGKQRELVAGISSDGSKVYGDSVKGRFTISRDNAKNSVYLQMNSLRAEDTAVYYCYYFRTVSRSSMRYWGQGTLVTVSSGGGGSGGGSGGGGSGGGSHHHHHH	nM	9.4

Ask: Requested field: Kd. Item: anti-DLL3 trispecific protein 1D010 (protein, part only; not given: anti-CD3 and anti-albumin domains, part only) chain, part: EVQLVESGGGLVQPGGSLTLSCVASGSTSSNNAMAWYRRAPGKQRELVAGISSDGSKVYTDSVKGRFTISRDNAKNSVYLQMNSLRAEDTAVYYCYYFRTRSGSSMRYWGQGTLVTVSSGGGGSGGGSGGGGSGGGSHHHHHH
Result: 5

Ask: Requested field: Kd. Item: anti-DLL3 trispecific protein 2H07 (protein, part only; not given: anti-CD3 fragment and anti-albumin sdAb, part only) chain, part: EVQLVESGGGLVQPGGSLTLSCVASGSTSSINAVGWYRRAPGKQRELVAGISSDGSTVYADSVKGRFTISRDNAKNSVYLQMNSLRAEDTAVYYCYYFRTVSGHSMRYWGQGTLVTVSSGGGGSGGGSGGGGSGGGSHHHHHH
Result: 6.1
